Origin of the recorded values: ChEMBL document CHEMBL4396887

- Assay system: Gamma-aminobutyric acid receptor subunit alpha-4/beta-2/gamma-2 (Homo sapiens, UniProt P47870+P18507+P48169)
- Sequence (P47870 whole entry): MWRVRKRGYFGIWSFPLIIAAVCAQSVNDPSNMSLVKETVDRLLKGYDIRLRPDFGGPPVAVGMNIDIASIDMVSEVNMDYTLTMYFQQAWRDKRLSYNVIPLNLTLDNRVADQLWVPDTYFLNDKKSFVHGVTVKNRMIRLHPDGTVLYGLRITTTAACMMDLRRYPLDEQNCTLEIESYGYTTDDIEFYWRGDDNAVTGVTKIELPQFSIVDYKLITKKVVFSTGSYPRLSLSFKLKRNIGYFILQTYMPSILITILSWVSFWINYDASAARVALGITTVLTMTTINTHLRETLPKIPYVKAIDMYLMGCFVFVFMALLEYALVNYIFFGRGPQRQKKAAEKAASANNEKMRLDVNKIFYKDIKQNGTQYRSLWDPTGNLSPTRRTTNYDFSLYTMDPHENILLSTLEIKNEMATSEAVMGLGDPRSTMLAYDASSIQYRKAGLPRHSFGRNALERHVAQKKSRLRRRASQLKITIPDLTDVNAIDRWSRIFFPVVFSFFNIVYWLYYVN
- Sequence (P18507 whole entry): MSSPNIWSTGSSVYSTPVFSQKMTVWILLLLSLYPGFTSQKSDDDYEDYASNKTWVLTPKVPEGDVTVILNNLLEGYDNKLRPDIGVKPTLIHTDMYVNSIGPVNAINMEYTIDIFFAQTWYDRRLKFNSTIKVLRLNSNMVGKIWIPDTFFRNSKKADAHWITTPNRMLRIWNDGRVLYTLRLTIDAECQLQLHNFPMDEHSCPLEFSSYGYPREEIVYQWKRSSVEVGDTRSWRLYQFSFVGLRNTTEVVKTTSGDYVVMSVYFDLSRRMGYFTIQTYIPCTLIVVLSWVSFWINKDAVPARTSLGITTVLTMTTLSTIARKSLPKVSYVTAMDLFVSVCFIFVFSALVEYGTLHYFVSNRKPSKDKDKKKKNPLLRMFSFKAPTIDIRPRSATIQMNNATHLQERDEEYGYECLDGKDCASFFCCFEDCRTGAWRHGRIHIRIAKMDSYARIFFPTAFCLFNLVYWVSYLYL
- Sequence (P48169 whole entry): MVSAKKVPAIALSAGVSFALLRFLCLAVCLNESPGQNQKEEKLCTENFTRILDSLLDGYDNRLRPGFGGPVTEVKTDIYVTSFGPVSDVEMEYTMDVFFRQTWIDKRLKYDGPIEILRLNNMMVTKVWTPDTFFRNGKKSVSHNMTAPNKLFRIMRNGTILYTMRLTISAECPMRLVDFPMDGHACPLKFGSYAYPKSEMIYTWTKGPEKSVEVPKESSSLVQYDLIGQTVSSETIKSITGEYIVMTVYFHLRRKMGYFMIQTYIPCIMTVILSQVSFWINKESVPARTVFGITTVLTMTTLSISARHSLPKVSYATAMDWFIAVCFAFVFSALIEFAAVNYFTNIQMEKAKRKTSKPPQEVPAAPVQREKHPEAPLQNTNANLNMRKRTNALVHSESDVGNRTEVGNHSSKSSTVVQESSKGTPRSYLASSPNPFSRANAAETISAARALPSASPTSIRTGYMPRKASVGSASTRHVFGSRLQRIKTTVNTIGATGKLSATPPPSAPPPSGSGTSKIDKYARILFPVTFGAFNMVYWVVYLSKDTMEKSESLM
- Test: Agonist activity at recombinant human GABA-A alpha4beta2gamma2S receptor transiently expressed in human tsA201 cells incubated for 30 mins and measured up to 90 secs by FMP dye based FLIPR membrane potential blue assay
- Format: cell-based
Experimental endpoint: EC50

// below: answered molecules
Molecule: CC1(CC(=O)O)CSC(N)=N1 (stereo not drawn)
EC50: Not Active
--
Molecule: C[C@@H](C(=O)O)[C@@H]1CSC(N)=N1 (relative stereo)
EC50: Not Active
--
Molecule: C[C@@H]1SC(N)=N[C@@H]1CC(=O)O (relative stereo)
EC50: Not Active
--
Molecule: CC(C(=O)O)C1CSC(N)=N1 (stereo in doubt; l-10b)
EC50: Not Active
--
Molecule: C[C@H]1SC(N)=N[C@@H]1CC(=O)O (relative stereo)
EC50: Not Active

Give its EC50 value. Item: Nc1nc(CC(=O)O)cs1
Not Active

Try O=C(O)C[C@@H]1CCNC1 next.
Not Active

Try C[C@@H](C(=O)O)[C@H]1CSC(N)=N1 (relative stereo) next.
Not Active
